- Tested on: icHep (PXB-cells on claudin-1, -2, -3, -9 coated Transwell permeable support)
- Test Method Notes: icHep permeation assay (sinusoidal to bile side) to estimate drug biliary excretion clearance
- Condition Context: Control, block with icHep (JFC); mean
Quantity: In vitro CLbile, app, Mean

Worked cases, answers included:
Compound	Observed
CN/C(=N/CCSCc1nc[nH]c1C)NC#N	1.14 ul/min/106 cells
CC[C@]1(O)C[C@H]2CN(CCc3c([nH]c4ccccc34)[C@@](C(=O)OC)(c3cc4c(cc3OC)N(C=O)[C@H]3[C@@](O)(C(=O)OC)[C@H](OC(C)=O)[C@]5(CC)C=CCN6CC[C@]43[C@@H]65)C2)C1	0.205 ul/min/106 cells
CCOc1ccc2ccccc2c1C(=O)N[C@@H]1C(=O)N2[C@@H]1SC(C)(C)[C@@H]2C(=O)O	1.10 ul/min/106 cells

Turning to the following compound.
Q. Report In vitro CLbile, app, Mean for CN(Cc1cnc2nc(N)nc(N)c2n1)c1ccc(C(=O)N[C@@H](CCC(=O)O)C(=O)O)cc1 [Methotrexate, methotrexate] tested on icHep (PXB-cells on claudin-1, -2, -3, -9 coated Transwell permeable support).
A. 1.37 ul/min/106 cells
